targetOrSystem: 3-phosphoinositide-dependent protein kinase 1 (Homo sapiens, UniProt O15530)
Sequence (O15530 whole entry): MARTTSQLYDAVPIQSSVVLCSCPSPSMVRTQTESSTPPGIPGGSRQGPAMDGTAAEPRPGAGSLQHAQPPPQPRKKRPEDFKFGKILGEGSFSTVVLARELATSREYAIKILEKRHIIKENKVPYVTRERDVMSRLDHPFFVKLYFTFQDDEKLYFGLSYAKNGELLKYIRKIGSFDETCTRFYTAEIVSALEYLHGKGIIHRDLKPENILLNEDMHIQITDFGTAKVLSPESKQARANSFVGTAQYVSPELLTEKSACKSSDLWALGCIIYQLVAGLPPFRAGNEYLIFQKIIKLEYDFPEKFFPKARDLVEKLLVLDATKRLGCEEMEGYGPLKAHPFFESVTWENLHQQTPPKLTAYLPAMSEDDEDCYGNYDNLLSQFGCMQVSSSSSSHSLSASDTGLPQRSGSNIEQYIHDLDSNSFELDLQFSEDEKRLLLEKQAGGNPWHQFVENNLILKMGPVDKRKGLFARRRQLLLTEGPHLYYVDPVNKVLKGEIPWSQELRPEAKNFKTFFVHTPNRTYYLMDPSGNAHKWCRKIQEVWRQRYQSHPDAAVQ
testName: Inhibition of PDK1 using [gamma33P]-ATP as substrate after 30 mins by scintillation counting
measuredProperty: pIC50
# pIC50 = -log10(concentration in molar units)

chemicalSmiles | pIC50
CN1C/C=C/CCOc2cccc(c2)-c2nc(nc3[nH]cnc23)Nc2cccc(c2)C1 | 6.41

Proceeding to the next molecule to report its pIC50.
Exam item: Any idea what pIC50 came out for "COc1ccc(-c2nc(Nc3cccc(NC(=O)CN)c3)nc3[nH]cnc23)cc1OC" on 3-phosphoinositide-dependent protein kinase 1 (Homo sapiens, UniProt O15530)?
Marked response: 7.01

* * *

Form: system (Cyclin-dependent kinase 2 (Homo sapiens)), quantity (IC50), values below.
Unit µM implied. Number only.

Record excerpt, results attached:
chemicalSmiles | targetOrSystem | IC50, µM
CN1C/C=C/CCOc2cccc(c2)-c2nc(nc3[nH]cnc23)Nc2cccc(c2)C1 | Cyclin-dependent kinase 2 (Homo sapiens) | 4.1
Cc1cnc2nc1-c1cccc(c1)OCC/C=C/CN(C)Cc1cccc(c1)N2 | Cyclin-dependent kinase 2 (Homo sapiens) | 0.15

Proceeding to the next compound to report its IC50.
Exam item: Which value of IC50 has been reported for "CC(C)(C(N)=O)C(=O)NCCCNc1nc(Nc2cccc(NC(=O)N3CCCC3)c2)ncc1Br" in the records?
Marked response: 1.5
